Values were extracted from ChEMBL document CHEMBL4145672.

- assay: Cytotoxicity against rat C6 cells assessed as cell viability at 20 uM measured after 24 hrs by MTT assay relative to control
- Assay type: cell-based
- condition_description: read-out: Activity
measurement_label: viability at 24 h, 20 µM (%)
Report the figure in % without appending any unit label.

Reference set (4 entries):
molecule: CC1(C)O[C@H]2C[C@H]3C(=C[C@]21O)CC[C@@H]1[C@]3(C)CCC[C@@]1(C)C(=O)O
measure_unit: %
viability at 24 h, 20 µM: 99

molecule: C=C(CC(=O)C[C@@H](C)[C@H]1CC[C@@]2(C)C3=CC[C@H]4C(C)(C)C(=O)CC[C@]4(C)[C@@H]3CC[C@]12C)C(=O)O
measure_unit: %
viability at 24 h, 20 µM: 98.5

molecule: CC1=CC(O)(C[C@@H](C)[C@]2(C)CC=C3C4=CC[C@H]5C(C)(C)[C@H](O)CC[C@]5(C)[C@@H]4CC[C@]32C)OC1=O (some centres not stated)
measure_unit: %
viability at 24 h, 20 µM: 56.7

molecule: C/C(=C\C(=O)C[C@@H](C)[C@@H]1CC=C2C3=CC[C@H]4C(C)(C)[C@H](O)CC[C@]4(C)[C@@H]3CC[C@]21C)C(=O)O
measure_unit: %
viability at 24 h, 20 µM: 85.7

What measured viability at 24 h, 20 µM goes with C/C(=C\CC[C@@H](C)[C@H]1CC[C@@]2(C)[C@@H]3CC[C@H]4C(C)(C)[C@@H](O)CC[C@@]45C[C@@]35CC[C@]12C)C(=O)O ?
79.3

What measured viability at 24 h, 20 µM goes with C/C(=C\CO)[C@H](O)C[C@@H]1[C@@]2(C)CCCC(C)(C)[C@@H]2CC[C@@]1(C)O ?
104

What measured viability at 24 h, 20 µM goes with C=C(C)[C@@H]1C=CC2=C3CC[C@@](C)([C@H](C)CC(=O)C[C@@H](C)C(=O)O)[C@]3(C)CC[C@H]2[C@@]1(C)CCC(=O)O ?
110
